B1: Transitional endoplasmic reticulum ATPase, residues 26 to 106; numbered along this chain, P55072 (parent)
chain: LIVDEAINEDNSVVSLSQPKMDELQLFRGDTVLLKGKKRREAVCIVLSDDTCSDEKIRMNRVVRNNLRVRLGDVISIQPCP

# Variants of: B1
# experiment summary: abundance fitness (aPCA) (normalised: wild type 0, dead -1); higher = more abundant; growth selection in yeast, the domain comes from the species named
# experimental parameters: Homo sapiens
Short version: abundance fitness at least -0.1 is Condition met, less is Condition not met.

Illustrative cases are given below, each with its answer.
mutation notation | category label
D30I | Condition not met
Q18L | Condition met
G36T | Condition met

Request: Does the variant A6Y have recorded abundance fitness that is -0.1 or more?
Response: Condition not met

Request: Does the variant R40D have recorded abundance fitness that is -0.1 or more?
Response: Condition met

Request: Does the variant G36R have recorded abundance fitness that is -0.1 or more?
Response: Condition not met

Request: Does the variant A6N have recorded abundance fitness that is -0.1 or more?
Response: Condition met

Request: Does the variant G72T have recorded abundance fitness that is -0.1 or more?
Response: Condition met

Request: Does the variant V13M have recorded abundance fitness that is -0.1 or more?
Response: Condition not met

Request: Does the variant L16W have recorded abundance fitness that is -0.1 or more?
Response: Condition not met
